# target under test: Tyk2 (Homo sapiens (Human))
# Sequence (P29597 whole entry): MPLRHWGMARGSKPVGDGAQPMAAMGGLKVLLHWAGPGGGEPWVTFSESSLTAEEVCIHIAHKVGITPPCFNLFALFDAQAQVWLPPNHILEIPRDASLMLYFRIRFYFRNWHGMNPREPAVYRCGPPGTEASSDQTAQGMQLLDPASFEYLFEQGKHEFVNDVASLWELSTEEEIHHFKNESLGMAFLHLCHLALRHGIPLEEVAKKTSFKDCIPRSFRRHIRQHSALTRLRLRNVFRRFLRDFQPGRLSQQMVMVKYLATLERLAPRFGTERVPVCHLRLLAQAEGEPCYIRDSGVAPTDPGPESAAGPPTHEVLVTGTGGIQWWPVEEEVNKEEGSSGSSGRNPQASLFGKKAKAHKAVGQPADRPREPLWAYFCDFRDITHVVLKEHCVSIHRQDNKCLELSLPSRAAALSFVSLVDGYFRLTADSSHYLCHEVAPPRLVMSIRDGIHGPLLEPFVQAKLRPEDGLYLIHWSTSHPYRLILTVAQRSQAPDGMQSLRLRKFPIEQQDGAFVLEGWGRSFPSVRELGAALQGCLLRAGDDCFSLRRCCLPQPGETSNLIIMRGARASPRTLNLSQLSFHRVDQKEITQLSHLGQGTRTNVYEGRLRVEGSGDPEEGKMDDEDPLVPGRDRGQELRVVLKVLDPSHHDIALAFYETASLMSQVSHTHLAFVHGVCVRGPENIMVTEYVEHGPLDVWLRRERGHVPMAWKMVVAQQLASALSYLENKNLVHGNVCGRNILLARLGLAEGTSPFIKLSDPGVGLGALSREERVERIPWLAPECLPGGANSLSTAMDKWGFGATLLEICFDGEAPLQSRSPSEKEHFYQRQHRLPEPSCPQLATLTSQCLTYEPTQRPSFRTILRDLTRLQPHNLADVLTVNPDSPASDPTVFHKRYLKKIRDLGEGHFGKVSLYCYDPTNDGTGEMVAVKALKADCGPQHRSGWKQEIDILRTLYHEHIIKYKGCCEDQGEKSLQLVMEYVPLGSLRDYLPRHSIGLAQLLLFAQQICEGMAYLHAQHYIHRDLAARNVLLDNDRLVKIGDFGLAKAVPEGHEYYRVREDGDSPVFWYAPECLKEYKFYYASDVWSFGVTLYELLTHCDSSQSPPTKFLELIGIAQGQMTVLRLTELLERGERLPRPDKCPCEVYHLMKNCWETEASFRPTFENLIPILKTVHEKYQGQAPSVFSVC
# assay name: pSTAT4 Cell Assay (MSD, NK92 cells)
# Type: cell-based
# measurement conditions: MSD
measured quantity: IC50

Some entries whose results are on file:
- compound: "CC(=O)Nc1cc(Nc2cc(C)nc(C(C)(F)F)n2)c(OC[C@@H]2CCN(C3CC3)C2)cn1"
  target under test: "Tyk2 (Homo sapiens (Human))"
  measured quantity: "IC50"
  value: "10 to 100 nM"
- compound: "CC(=O)Nc1cc(Nc2cc(C(C)C)nc(C(C)(F)F)n2)c(O[C@H]2C[C@@H](F)C2)cn1"
  target under test: "Tyk2 (Homo sapiens (Human))"
  measured quantity: "IC50"
  value: "10 to 100 nM"
- compound: "COc1nc(-c2cnc(NC(C)=O)cc2Nc2cc(C)nc(C(C)(F)F)n2)nn1C"
  target under test: "Tyk2 (Homo sapiens (Human))"
  measured quantity: "IC50"
  value: "100 to 1000 nM"
- compound: "CC(=O)Nc1cc(Nc2ccnc(C(C)(F)F)n2)c(-c2cccc(C(C)(C)C#N)n2)cn1"
  target under test: "Tyk2 (Homo sapiens (Human))"
  measured quantity: "IC50"
  value: "10 to 100 nM"
- compound: "COc1cnc(NC(C)=O)cc1Nc1cc(C)nc(C23COC(C)(C2)C3)n1"
  target under test: "Tyk2 (Homo sapiens (Human))"
  measured quantity: "IC50"
  value: "≥ 1000 nM"

The measured IC50 associated with COc1nccc(-c2cnc(NC(C)=O)cc2Nc2cc(C)nc(C(C)(C)F)n2)n1 reads ≤ 10 nM

For record COc1cnc(NC(C)=O)cc1Nc1cc(-c2ccncc2F)nc(C(C)(F)F)n1 the listed IC50 is 10 to 100 nM

* * *

Parameter: IC50. Scope: all listed entries.
# target under test: JH2 domain of human Tyk2 (Homo sapiens (Human), UniProt P29597)
# Sequence (P29597 575-876): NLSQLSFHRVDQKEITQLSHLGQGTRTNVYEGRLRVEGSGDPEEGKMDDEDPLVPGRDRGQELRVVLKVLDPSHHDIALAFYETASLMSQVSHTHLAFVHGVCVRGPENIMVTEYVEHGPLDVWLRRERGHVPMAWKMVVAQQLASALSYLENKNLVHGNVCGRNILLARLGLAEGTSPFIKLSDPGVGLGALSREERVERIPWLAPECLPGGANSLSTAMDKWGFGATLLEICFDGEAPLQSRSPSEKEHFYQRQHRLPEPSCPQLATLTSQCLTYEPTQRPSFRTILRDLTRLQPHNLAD
# assay name: JH2 Biochemical Assay (TR-FRET probe displacement)
# Assay type: binding
# measurement conditions: JH2 domain of human Tyk2, TR-FRET probe displacement

Recorded IC50, per entry:
- compound: "COc1cnc(NC(C)=O)cc1Nc1cc(-c2cnn(C3CC3)c2)nc(C(C)(F)F)n1 [Example 376]"
  IC50: "10 to 100 nM"
- compound: "COc1cnc(NC(C)=O)cc1Nc1cc(-c2cc(OC)c3nc(C)cn3c2)nc(C(C)(F)F)n1 [Example 401]"
  IC50: "≤ 10 nM"
- compound: "COCc1nccc(-c2cnc(NC(C)=O)cc2Nc2cc(C)nc(C(C)(F)F)n2)n1 [Example 661]"
  IC50: "≤ 10 nM"

The recorded IC50 for COCc1ccc(-c2cnc(NC(C)=O)cc2Nc2cc(C)nc(C(C)(F)F)n2)nc1 [Example 634] is ≤ 10 nM

* * *

# target under test: UniProt P29597
# assay name: pSTAT4 Cell Assay (MSD, NK92 cells)
# Assay type: cell-based
measured quantity: IC50

- compound: "CC(=O)Nc1cc(Nc2ccnc(C(C)(F)F)n2)c(-c2cnn(CCN3CCN(C)CC3)n2)cn1 [Example 779]"
  IC50: "10 to 100 nM"
- compound: "CC(=O)Nc1cc(Nc2cc(C)nc(C(C)(F)F)n2)c([C@@H]2C[C@@H]2C#N)cn1 (relative stereo) [Example 810]"
  IC50: "≥ 1000 nM"

Recorded result, CNC(=O)Nc1cc(Nc2ccnc(C(C)(F)F)n2)c(-c2nc3c(s2)CN(C)CC3)cn1 [Example 795] , IC50: ≤ 10 nM

* * *

# target under test: Tyk2 (Homo sapiens (Human))
# assay name: pSTAT4 Cell Assay (MSD, NK92 cells)
# Type: cell-based
# measurement conditions: MSD
IC50 by entry:

- molecule: "CC(=O)Nc1cc(Nc2cc(C)nc(C(C)(F)F)n2)c(OCc2cnc(C3CC3)o2)cn1"
  target under test: "Tyk2 (Homo sapiens (Human))"
  IC50: "0.01 to 0.1 µM"
- molecule: "COCCOc1cnc(NC(C)=O)cc1Nc1cc(OC)nc(C(C)(F)F)n1"
  target under test: "Tyk2 (Homo sapiens (Human))"
  IC50: "0.01 to 0.1 µM"
- molecule: "CCc1cc(Nc2cc(NC(C)=O)ncc2-c2ccc(COC)cn2)nc(C23COC(C2)C3)n1"
  target under test: "Tyk2 (Homo sapiens (Human))"
  IC50: "≤ 0.01 µM"
- molecule: "[2H]C([2H])([2H])C([2H])([2H])Oc1cnc(NC(C)=O)cc1Nc1cc(C)nc(C(C)(F)F)n1"
  target under test: "Tyk2 (Homo sapiens (Human))"
  IC50: "0.01 to 0.1 µM"
- molecule: "COCCOc1cnc(NC(C)=O)cc1Nc1cc(C(C)C)nc(C(C)(F)F)n1"
  target under test: "Tyk2 (Homo sapiens (Human))"
  IC50: "≤ 0.01 µM"
- molecule: "CC(=O)Nc1cc(Nc2cc(C)nc(C(C)(F)F)n2)c(OCCOC(C)(C)C)cn1"
  target under test: "Tyk2 (Homo sapiens (Human))"
  IC50: "≤ 0.01 µM"

Consider COc1ccnc(Nc2cc(NC(C)=O)ncc2-c2ccn(C)n2)n1 . Its measured IC50 is 0.1 to 1 µM

Looking up CC(=O)Nc1cc(Nc2cc(C)nc(C(C)(F)F)n2)c(-c2cc3n(n2)CCN(C)C3)cn1 , I found its IC50 recorded as ≤ 0.01 µM

IC50 in this record for CC(=O)Nc1cc(Nc2ccnc(C(C)(F)F)n2)c(-c2ccn(C)n2)cn1 : ≤ 0.01 µM

The recorded IC50 for CC(=O)Nc1cc(Nc2cc(C)nc(C(C)(F)F)n2)c(OCC2CCCO2)cn1 (stereo not drawn) is 0.01 to 0.1 µM

Record CC(=O)Nc1cc(Nc2cc(C)nc(C(C)(F)F)n2)c(OCc2cnn(C)c2C)cn1 , field IC50: ≥ 1 µM

The reported IC50 of the molecule CC(=O)Nc1cc(Nc2ccnc(C(C)(F)F)n2)c(-c2ccn3ncnc3n2)cn1 was 0.01 to 0.1 µM

* * *

Let's look at some molecules and their measured IC50.
# target under test: JH2 domain of human Tyk2 (Homo sapiens (Human), UniProt P29597)
# assay name: JH2 Biochemical Assay (TR-FRET probe displacement)
# Type: binding
# measurement conditions: JH2 domain of human Tyk2, TR-FRET probe displacement

IC50 for COc1cnn(-c2cnc(NC(C)=O)cc2Nc2ccnc(C(C)(F)F)n2)c1 is 10 to 100 nM

Lab note: measured IC50 of CC(=O)Nc1cc(Nc2cc(C)nc(C(C)(F)F)n2)c(-c2cccc(C#N)n2)cn1 was ≤ 10 nM

In plain terms, CC(=O)Nc1cc(Nc2cc(C)nc(C(C)(F)F)n2)c(-c2cnc(C)o2)cn1 has a documented IC50 of 10 to 100 nM

* * *

# target under test: UniProtKB P29597
# assay name: pSTAT4 Cell Assay (MSD, NK92 cells)
# Format: cell-based
# measurement conditions: MSD
# Experimental: The inhibitory potency of compounds of the disclosure against the Tyk2 kinase activity on STAT4 was evaluated using an MSD-platform plate-based assay format. NK92 cells natively expressing STAT4 and Tyk2 were serum-starved to reduce background phosphorylation levels, then cells were treated compounds for 1 hr with a 10-point four-fold dilution series starting at 10 μM. Cells were then stimulated with 30 ng/mL IL2 for 15 minutes. […]
pIC50: −log10 of the molar value.
measured quantity: pIC50

- compound: "CC(=O)Nc1cc(Nc2cc(C)nc(C(C)(F)F)n2)c(OCc2cnccc2C)cn1 [Example 470]"
  value: "6.00 to 7.00"
- compound: "CCOCCOc1cnc(NC(C)=O)cc1Nc1cc(C)nc(C(C)(F)F)n1 [Example 507]"
  value: "≥ 8.00"
- compound: "COc1cnc(NC(C)=O)cc1Nc1cc(-c2cnn(C3CC3)c2)nc(C(C)(F)F)n1 [Example 376]"
  value: "7.00 to 8.00"
- compound: "CCOc1cnc(NC(C)=O)cc1Nc1cc(-c2cnn(C3CC3)c2)nc(C(C)(F)F)n1 [Example 304]"
  value: "≥ 8.00"
- compound: "CCOc1cnc(NC(C)=O)cc1Nc1cc(OC2CC3(COC3)C2)nc(C(C)(F)F)n1 [Example 297]"
  value: "≥ 8.00"

Summary for this compound, CCN1CCn2nc(-c3cnc(NC(C)=O)cc3Nc3cc(C)nc(C45COC(C4)C5)n3)cc2C1 [Example 544] : pIC50 is ≥ 8.00

Notebook: CC(=O)Nc1cc(Nc2cc(C)nc(C(C)(F)F)n2)c(-c2cccc(C3CN(C)CCO3)n2)cn1 (stereo not shown) [Example 640] , pIC50 read as ≥ 8.00

* * *

# target under test: JH2 domain of human Tyk2 (Homo sapiens (Human))
# assay name: JH2 Biochemical Assay (TR-FRET probe displacement)
# Assay type: binding
# measurement conditions: TR-FRET probe displacement, JH2 domain of human Tyk2
Listing of recorded IC50 by entry.

Here are 2 compounds together with their reported answers.
- compound: "CC(=O)Nc1cc(Nc2cc(C)nc(C(C)(F)F)n2)c(OCc2cccnc2)cn1 [Example 355]"
  target under test: "JH2 domain of human Tyk2 (Homo sapiens (Human))"
  value: "≤ 10 nM"
- compound: "CC(=O)Nc1cc(Nc2cc(C)nc(C(C)(F)F)n2)c(OCc2ccsn2)cn1 [Example 323]"
  target under test: "JH2 domain of human Tyk2 (Homo sapiens (Human))"
  value: "≤ 10 nM"

Continue with the compound presented below.
Measured IC50 of CC(=O)Nc1cc(Nc2cc(C)nc(C(C)(F)F)n2)c(OCc2c(C)ncnc2C)cn1 [Example 330] : 10 to 100 nM
